The values you see were collected from patent US20250032489A1.

system: OVCAR5 cells; assay: Colony formation assay; type: cell-based

compound: c1nc(C2CC2)cnc1Nc1cc(C2CCN(CC3CC3)CC2)cc(N2CC3CC3C2)n1 (stereo not shown)
sensitivity (colony formation): exquisitely sensitive
--
compound: c1nc(C2CC2)cnc1Nc1cc(C2CN(CC3CC3)C2)cc(N2CC3CC3C2)n1 (stereo not shown)
sensitivity (colony formation): exquisitely sensitive
--
compound: Cc1cnc(Nc2cc(C3CCN(C4CCCC4)CC3)cc(N3CCC(F)(F)C3)n2)cn1
sensitivity (colony formation): sensitive
--
compound: Cc1cnc(Nc2cc(C3CCN(CC4CC4)CC3)cc(N3CCC(F)(F)C3)n2)cn1
sensitivity (colony formation): sensitive

* * *

molecular target: DLK (Homo sapiens (Human)); experiment: KD determination, Eurofins DiscoveRx Kd-Elect; format: binding; conditions: in μM
measurement name: Kd

Known results for compounds:
compound: CC(=O)N1CCC(c2cc(Nc3cnc4ccccc4n3)nc(N3CCC(F)(F)C3)c2)CC1 [compound 112]
target entity: DLK (Homo sapiens (Human))
value: > 10 µM
--
compound: CC(=O)N1CCC(c2cc(Nc3nccnc3C)nc(N3CCC(F)(F)C3)c2)CC1 [compound 109]
target entity: DLK (Homo sapiens (Human))
value: > 10 µM

In plain terms, CC(=O)N1CCC(c2cc(Nc3ncccn3)nc(N3CCC(F)(F)C3)c2)CC1 [compound 117] has a documented Kd of > 10 µM

In plain terms, CC(=O)N1CCC(c2cc(Nc3cncc(C)n3)nc(N3CCC(F)(F)C3)c2)CC1 [compound 108] has a documented Kd of > 10 µM

In plain terms, CC(=O)N1CCC(c2cc(Nc3cc4[nH]ccc4cn3)nc(N3CCC(F)(F)C3)c2)CC1 [compound 104] has a documented Kd of > 10 µM

In plain terms, CC(=O)N1CCC(c2cc(Nc3ccn(C)n3)nc(N3CCC(F)(F)C3)c2)CC1 [compound 101] has a documented Kd of > 10 µM

* * *

molecular target: DLK (Homo sapiens (Human), UniProt Q12852); assay: KD determination, Eurofins DiscoveRx Kd-Elect; format: binding
Sequence (Q12852 whole entry): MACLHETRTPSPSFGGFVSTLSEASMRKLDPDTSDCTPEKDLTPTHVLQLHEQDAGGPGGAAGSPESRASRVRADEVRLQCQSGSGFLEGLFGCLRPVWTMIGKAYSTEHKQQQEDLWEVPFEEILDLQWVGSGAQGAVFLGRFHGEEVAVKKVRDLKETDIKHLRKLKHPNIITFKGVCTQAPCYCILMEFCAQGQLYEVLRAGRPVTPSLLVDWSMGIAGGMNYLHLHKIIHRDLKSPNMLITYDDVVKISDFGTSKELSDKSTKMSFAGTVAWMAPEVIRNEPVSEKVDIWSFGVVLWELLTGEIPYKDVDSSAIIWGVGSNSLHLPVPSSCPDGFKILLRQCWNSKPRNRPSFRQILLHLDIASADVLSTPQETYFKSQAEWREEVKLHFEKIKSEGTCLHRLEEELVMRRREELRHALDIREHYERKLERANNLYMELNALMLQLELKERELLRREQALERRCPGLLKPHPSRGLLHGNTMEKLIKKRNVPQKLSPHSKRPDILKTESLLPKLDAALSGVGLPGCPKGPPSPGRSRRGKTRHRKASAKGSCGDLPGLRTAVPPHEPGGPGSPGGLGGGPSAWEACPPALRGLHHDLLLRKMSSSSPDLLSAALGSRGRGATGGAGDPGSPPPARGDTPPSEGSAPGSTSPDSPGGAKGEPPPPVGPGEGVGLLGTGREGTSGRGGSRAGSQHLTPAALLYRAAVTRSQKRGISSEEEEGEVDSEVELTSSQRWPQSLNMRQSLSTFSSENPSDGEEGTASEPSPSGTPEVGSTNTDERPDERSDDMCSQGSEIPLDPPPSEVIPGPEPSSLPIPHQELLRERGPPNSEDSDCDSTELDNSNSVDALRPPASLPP
pKd: −log10 of the molar value.
Classification field: enter Satisfied for pKd values not below 7, Not satisfied for values below it.

Check out these entries, answers already filled in.
molecule: CC(=O)N1CC(c2cc(Nc3cnc(C4CC4)cn3)nc(N3CC4CC4C3)c2)C1 (stereo not shown)
qualitative label: Satisfied
--
molecule: CC(=O)N1CCC(c2cc(Nc3cn(C)cn3)nc(N3CCC(F)(F)C3)c2)CC1
qualitative label: Not satisfied
--
molecule: Cc1cnc(Nc2cc(C3CCN(CC4CC4)CC3)cc(N3CCC(F)(F)C3)n2)cn1
qualitative label: Satisfied
--
molecule: CC(=O)N1CCC(c2cc(Nc3cnc(C)cn3)nc(N3CCC4(CC4)C3)c2)CC1
qualitative label: Satisfied

Request: Entry `CC(=O)N1CCC(c2cc(Nc3cnc(C)cn3)nc(N3CCOCC3)c2)CC1` : is its pKd no less than 7?
Response: Not satisfied

Request: Entry c1nc(C2CC2)cnc1Nc1cc(C2CCN(CC3CC3)CC2)cc(N2CC3CC3C2)n1 (stereo not shown) : is its pKd no less than 7?
Response: Satisfied

Request: Entry CC(=O)N1CCC(c2cc(Nc3cnc(C)cn3)nc(N3CC4CCC4C3)c2)CC1 (stereo not shown) : is its pKd no less than 7?
Response: Not satisfied

* * *

biological target: LZK (Homo sapiens (Human), UniProt O43283); assay: KD determination, Eurofins DiscoveRx Kd-Elect; type: binding; settings: read-out: Kd values
Sequence (O43283 whole entry): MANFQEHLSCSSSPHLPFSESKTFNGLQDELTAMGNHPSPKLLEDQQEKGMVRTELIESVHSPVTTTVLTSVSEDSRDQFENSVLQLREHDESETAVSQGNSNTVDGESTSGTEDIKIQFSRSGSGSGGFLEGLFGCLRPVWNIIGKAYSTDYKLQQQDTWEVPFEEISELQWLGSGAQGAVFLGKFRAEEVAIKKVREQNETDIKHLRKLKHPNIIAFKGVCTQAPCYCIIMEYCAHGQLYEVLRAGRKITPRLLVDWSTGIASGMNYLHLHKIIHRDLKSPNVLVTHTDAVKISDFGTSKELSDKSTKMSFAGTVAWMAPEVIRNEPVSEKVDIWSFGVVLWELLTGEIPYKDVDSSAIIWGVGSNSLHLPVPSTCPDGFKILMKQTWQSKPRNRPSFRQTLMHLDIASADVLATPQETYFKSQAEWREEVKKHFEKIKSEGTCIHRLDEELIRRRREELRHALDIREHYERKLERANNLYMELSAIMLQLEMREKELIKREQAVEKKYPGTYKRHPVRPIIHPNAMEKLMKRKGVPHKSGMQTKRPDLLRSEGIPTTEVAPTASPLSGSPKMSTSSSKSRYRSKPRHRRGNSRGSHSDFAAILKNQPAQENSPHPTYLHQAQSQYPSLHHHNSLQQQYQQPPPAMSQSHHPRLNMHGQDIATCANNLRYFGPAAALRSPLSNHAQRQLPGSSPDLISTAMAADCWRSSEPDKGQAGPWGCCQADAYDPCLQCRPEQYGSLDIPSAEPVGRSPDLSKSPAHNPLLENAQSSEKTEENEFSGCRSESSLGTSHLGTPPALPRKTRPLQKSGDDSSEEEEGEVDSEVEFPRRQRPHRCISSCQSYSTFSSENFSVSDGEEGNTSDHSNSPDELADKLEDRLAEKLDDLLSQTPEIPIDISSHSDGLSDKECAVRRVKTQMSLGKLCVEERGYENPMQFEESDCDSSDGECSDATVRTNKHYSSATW
pKd values by entry
Scale for pKd: -log10 of concentration given in mol/L; no unit attached.

Known results for compounds:
compound: CC(=O)NC12CC(n3cc(-c4cnc(N)c(C(F)(F)F)n4)nc3C(O)C(C)C)(C1)C2 (stereo not shown) [compound 44]
pKd: 7.03

compound: Cc1cnc(Nc2cc(C3CCN(CC4CC4)CC3)cc(N3CCC(F)(F)C3)n2)cn1 [compound 161]
pKd: 8.48

In plain terms, CC(=O)NC12CC(n3cc(-c4cnc(N)c(C#N)n4)nc3C(O)C(C)C)(C1)C2 (stereo not shown) [compound 45] has a documented pKd of 6.36

* * *

target: LZK (Homo sapiens (Human), UniProt O43283); experiment: KD determination, Eurofins DiscoveRx Kd-Elect; assay type: binding; details: read-out: LZK KD
measurement name: pKd
Scale for pKd: -log10 of concentration given in mol/L; no unit attached.

Reported LZK (Homo sapiens (Human), UniProt O43283) pKd for item `CC(=O)N1CCC(c2cc(Nc3cnc(C)cn3)nc(N3CCC(F)(F)CC3)c2)CC1` was 7.19

Reported LZK (Homo sapiens (Human), UniProt O43283) pKd for item c1nc(C2CC2)cnc1Nc1cc(C2CN(CC3CC3)C2)cc(N2CC3CCC3C2)n1 (stereo not shown) was 8.15

Reported LZK (Homo sapiens (Human), UniProt O43283) pKd for item `CC(=O)N1CCC(c2cc(Nc3cnc(C)cn3)nc(N(C)CC3CC3)c2)CC1` was 7.05

Reported LZK (Homo sapiens (Human), UniProt O43283) pKd for item `COc1cnc(Nc2cc(C3CCN(C(C)=O)CC3)cc(N3CCC(F)(F)C3)n2)cn1` was 6.52

Reported LZK (Homo sapiens (Human), UniProt O43283) pKd for item `CC(=O)N1CCC(c2cc(Nc3cnc(C)cn3)nc(N3CCOCC3)c2)CC1` was 6.64

Reported LZK (Homo sapiens (Human), UniProt O43283) pKd for item `CC(=O)N1CCC(c2cc(Nc3cn(C)cn3)nc(N3CCC(F)(F)C3)c2)CC1` was 5.82

Reported LZK (Homo sapiens (Human), UniProt O43283) pKd for item `Cc1cnc(Nc2cc(C3CCN(C4COC4)CC3)cc(N3CCC(F)(F)C3)n2)cn1` was 7.70

Reported LZK (Homo sapiens (Human), UniProt O43283) pKd for item `CC(=O)N1CCC(c2cc(Nc3cnc(C)cn3)nc(N3CC4CC(C4)C3)c2)CC1` was 8.10

Reported LZK (Homo sapiens (Human), UniProt O43283) pKd for item `Cc1cnc(Nc2cc(C3CCN(CC4CC4)CC3)cc(N3CCC(F)(F)C3)n2)cn1` was 8.48

Reported LZK (Homo sapiens (Human), UniProt O43283) pKd for item CC(=O)N1CCC(c2cc(Nc3cnc(C)cn3)nc(N3CC4CCC4C3)c2)CC1 (stereo not shown) was 9.01

* * *

biological target: LZK (Homo sapiens (Human)); assay: Phospho-JNK ELISA in doxycycline-induced CAL33 cells expressing LZK; details: read-out: inhibition of LZK IC50
measurement name: IC50

In plain terms, `Cc1cnc(Nc2cc(C3CCN(C4CCCC4)CC3)cc(N3CCC(F)(F)C3)n2)cn1` has a documented IC50 of ~0.1 µM

* * *

biological target: DLK (Homo sapiens (Human), UniProt Q12852); assay: KD determination, Eurofins DiscoveRx Kd-Elect; type: binding
pKd values by entry
Scale for pKd: -log10 of concentration given in mol/L; no unit attached.

Known results for compounds:
compound: CC(=O)N1CCC(c2cc(Nc3cnc(C)cn3)nc(N3CCC4(CC3)CC4)c2)CC1 [compound 208]
target entity: DLK (Homo sapiens (Human), UniProt Q12852)
value: 7.00

compound: CC(=O)N1CCC(c2cc(Nc3cnc(C)cn3)nc(N3CC4CC(C3)C4O)c2)CC1 (stereo not drawn) [compound 205]
target entity: DLK (Homo sapiens (Human), UniProt Q12852)
value: 7.00

Consider the record given below.
In plain terms, CC(=O)N1CCC(c2cc(Nc3cnc(C)cn3)nc(N3CCC(F)(F)CC3)c2)CC1 [compound 192] has a documented pKd of 6.92
